target: Gal(a1-3)Gal(b1-3)GlcNAc(b1-2)Man(a1-3)[Gal(a1-3)Gal(b1-3)GlcNAc(b1-2)Man(a1-6)]Man(b1-4)GlcNAc(b1-4)GlcNAc; assay: glycan array binding signal (z-score within array); higher = stronger binding; details: glycan notation: IUPAC condensed, linker removed
About 410 targets per protein were measured; listed, in parts, are those with the strongest signals and a random draw of the rest.
Label scheme for glycan array binding signal (z-score): lower than 1 is FALSE, 1 and above is TRUE.

Below, 4 binders whose answers are already recorded.
{"binder": "RVL (Remusatia vivipara), B5LYJ9 (protein) MAKLLLFLLPAILGLLVPRSAVALGTNYLLSGQTLDTEGHLKNGDFDLVMQDDCNLVLYNGNWQSNTANNGRDCKLTLTDYGELVIKNGDGSTVWKSGAQSVKGNYAAVVHPDGRLVVLGPSVFKIDPWVRGLNSLRFRNIPFTNNLLFSGQVLYGDGRLTAKNHQLVMQGDCNLVLYGGKYGWQSNTHGNGEHCFLRLNHKGELIIKDDDFKTIWSSRSSSKQGEYVLILQDDGFGVIYGPAIFETSSKRSIAAS", "class_label": "FALSE"}
{"binder": "EUL D1A first (Oryza sativa) (protein) MFGFGHHHNQAPAAPSDPNQIFKIFCRANENYCLTVRDSAVVLAPVNPKDEHQHWFKDMRFSTKVKDGEGMPAFALVNKATGLAVKHSLGQSHPVKLVPFNPEYEDASVLWTESKDVGKGFRCIRMVNNTRLNLDAFHGDKDHGGVRDGTTVVLWEWCKGDNQSWKILPWGPEAHSSSPGAATILEQKLISEEDLNSAVDHHHHHH", "class_label": "TRUE"}
{"binder": "Gal 2 (Canis lupus) (protein) MSGKFEVMNMDMKLGGTLKIKGKIAGDADGFVINLGQGSDKLNLHFNPRFHESVIVCNSRNWGQEQRDKHMCFSPGSEVKFTVTFENDGFKVKLPDGHQLTFPNRLGHSHLSYLGVQGGLKVSSFKIE", "class_label": "FALSE"}
{"binder": "SBD-G4S3-Fc (protein) MASIPSSASVQLDSYNYDGSTFSGKIYVKNIAYSKKVTVVYADGSDNWNNNGNIIAASFSGPISGSNYEYWTFSASVKGIKEFYIKYEVSGKTYYDNNNSANYQVSTGGGGSGGGGSGGGGSEFVPRDCGCKPCICTVPEVSSVFIFPPKPKDVLTITLTPKVTCVVVDISKDDPEVQFSWFVDDVEVHTAQTQPREEQFNSTFRSVSELPIMHQDWLNGKEFKCRVNSAAFPAPIEKTISKTKGRPKAPQVYTIPPPKEQMAKDKVSLTCMITDFFPEDITVEWQWNGQPAENYKNTQPIMDTDGSYFVYSKLNVQKSNWEAGNTFTCSVLHEGLHNHHTEKSLSHSPGAA", "class_label": "TRUE"}

Now for a further binder.
Enquiry: Entry ArathEULS3 (Arabidopsis thaliana), Q945P1 (protein) MEHHHQHHRHHQRDDGEDDRQSFGVPPPHVDAPPQPHGLYQSQPHFDPYAPTPQAPAPYRSETQFEPHAPPPYRSEPYFETPAPPPSFGHVSHVGHQSPNESYPPEHHRYGGYQQPSNSLLESHGDHSGVTHVAHHSSNQPQSSSGVYHKPDENRLPDNLAGLAGRATVKVYSKAEPNYNLTIRDGKVILAPADPSDEAQHWYKDEKYSTKVKDADGHPCFALVNKATGEAMKHSVGATHPVHLIRYVPDKLDESVLWTESKDFGDGYRTIRMVNNTRLNVDAYHGDSKSGGVRDGTTIVLWDWNKGDNQLWKIFPFILEQKLISEEDLNSAVDHHHHHH : is its glycan array binding signal (z-score) no less than 1?
Return: TRUE
